Assay: NCI Yeast Anticancer Drug Screen. Data for the cln2 rad14 strain (AID 165);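 further: 0% = growth equal to vehicle treated cultures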
Conditions: S. cerevisiae cln2 rad14 strain, active compounds read high; at 50.0 µM unless noted
About 79,000 compounds went through this panel and 15% of them were active in at least one assay; those are over-represented in the sample as a whole.
assay-readout: growth inhibition (%)
Report the value in % with no unit label.

compound	growth inhibition / %
CCOCCOC(=O)COc1ccccc1	7

Value of growth inhibition reported for the compound CC1=CP(=O)(c2ccccc2)CC1 (stereo not drawn) (tested in a mixture with another compound) is -9.85

Value of growth inhibition reported for the compound "COc1cc2c(cc1OC)C(=O)/C(=C/c1cc(OC)c(OC)c(OC)c1)C2" is -38.6

Value of growth inhibition reported for the compound CC12C(=C(C#N)C(=N)N1c1ccc(Cl)c(Cl)c1)C=C(O)CC2SCCS(=O)(=O)O (stereo not drawn) is 27.4

Value of growth inhibition reported for the compound "CN(CCOC(=O)Nc1ccccc1)N=O" is -15.4

Value of growth inhibition reported for the compound CC(c1cccc(O)c1)N(C)C (stereo not drawn) is -10.4

Value of growth inhibition reported for the compound "C=CCOC(=O)CCCC1=NC2=CC=CC3=NC(C)=NC(=N1)N23" is 12.2

Value of growth inhibition reported for the compound "O=C(c1ccccc1)N1c2ccc([N+](=O)[O-])cc2Sc2cc([N+](=O)[O-])ccc21" is 8.35

Value of growth inhibition reported for the compound "CCOC(=O)/C=C/CCC(C)(C)COC(C)=O" is -49.8

Value of growth inhibition reported for the compound "Nn1c(-c2ccccc2)nc2ccc(Br)cc2c1=O" is 24.8

Value of growth inhibition reported for the compound "CCS(=O)(=O)CC(O)CS(=O)(=O)CC" is -4.95

Value of growth inhibition reported for the compound "NC(=S)N/N=C/c1ccc(N)cn1" is 0.25

Value of growth inhibition reported for the compound "CCOC(=O)c1ccc(NCc2ccc(CNc3ccc(C(=O)OCC)cc3)cc2)cc1" is -11.8

Value of growth inhibition reported for the compound "Cc1ccccc1C=NC12CC3CC(CC(C3)C1)C2" is 7.2

Value of growth inhibition reported for the compound COC(=O)CCC(NC(=S)N/N=C(\C)c1ccco1)C(=O)OC (stereo not drawn) is 26.6

---

Assay: NCI Yeast Anticancer Drug Screen. Data for the mec2-1 strain (AID 157)
Details: S. cerevisiae mec2-1 strain, active compounds read high; at 50.0 µM unless noted
This is part of a sample that, as a whole, favours compounds with a hit. Of some 79,000 tested, about 15% had one in any assay.
# reported growth inhibition; entries follow
Report the value in % with no unit label.

compound	growth inhibition / %
CSc1ccc2nncc(SC)c2c1	7.05
Cn1c2ccc3cc2c(=S)c2cc(ccc21)OCCOCCOCCOCCOCCO3	-16
CC1=NCC[N+]1(CCc1ccccc1)Cc1ccccc1 (configuration not stated)	-5
O=C1CSC(c2ccccc2Cl)N1N1C(=O)CSC1c1ccccc1Cl (configuration not stated)	19.2
CC1CC(Nc2ccc(Br)cc2)N(C(=O)c2ccc(Br)cc2)O1 (configuration not stated)	-1.2
Cc1ccnc(NC#N)n1	13.6
OC(c1ccc(OCc2ccccc2)cc1)c1ccccn1 (configuration not stated)	-0.65
O=c1[nH]c(Br)nc2c(N3CCCCC3)c[nH]c12	-0.45
CSc1nc(N)cc(=O)n1C	-11.2
COc1c(OC2OC(CO)C(O)C(O)C2O)cc2c(c1OC)-c1ccc(OC)c(=O)cc1[C@@H](NC(C)=O)CC2 (some centres not stated)	9.6

Value of growth inhibition reported for the compound "CC1(C)N=C(N)N=C(N)N1c1ccc(N)cc1" is -3.8

Value of growth inhibition reported for the compound "O=C(O)Cc1ccc(-c2cn3c(n2)sc2ccccc23)cc1" is 22.3

---

Assay: NCI Yeast Anticancer Drug Screen. Data for the rad50 strain (AID 155);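 further: 0% = growth of vehicle-only cultures of the same strain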
Details: S. cerevisiae rad50 strain growth inhibition; at 50.0 µM unless noted
This is part of a sample that, as a whole, favours compounds with a hit. Of some 79,000 tested, about 15% had one in any assay. Calls of active or inactive are those of the source. No stated cut-off is given here; in the data, active means growth inhibition above about 70%; inactive means the rest.
Outcome (select one): 1 (yes) = active, 0 (no) = inactive

molecule	group-label
O=c1[nH]nc(Cc2ccccc2)n1CCO	0 (no)
CC(=O)NC(CCC(=O)O)C(=O)O (centres undefined)	0 (no)

Hi, sorry to bother you, what did the test record for "CC(=O)Nc1cccc(OC(=O)Nc2ccc(F)c(Cl)c2)c1" ?
0 (no)

Hi, sorry to bother you, what did the test record for "C[N+]1(Cc2csc(-c3ccc(Cl)cc3)n2)CCOCC1" ?
0 (no)

Hi, sorry to bother you, what did the test record for CC1(O)C2CC3CC(C2)CC1C3 (centres undefined) ?
0 (no)

Hi, sorry to bother you, what did the test record for "O=C(CSc1nnc(-c2ccc(N=Cc3ccc(Cl)cc3)cc2)o1)Nc1cccc([N+](=O)[O-])c1" ?
0 (no)

Hi, sorry to bother you, what did the test record for "CN(C)Cc1cc(C(=O)/C=C/c2ccc(Cl)c(Cl)c2)cc(CN(C)C)c1O" ?
0 (no)

Hi, sorry to bother you, what did the test record for "COc1ccc(C)cc1S(=O)(=O)c1ccc(Cl)cc1[N+](=O)[O-]" ?
0 (no)

Hi, sorry to bother you, what did the test record for "CCOC(=O)c1cc(/C=C/C(C)=C/C(=O)OC)n(C)c1C" ?
1 (yes)

---

Assay: NCI Yeast Anticancer Drug Screen. Data for the sgs1 mgt1 strain (AID 161);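 further: 0% = growth of cultures given vehicle only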
Conditions: S. cerevisiae sgs1 mgt1 strain, active compounds read high; at 50.0 µM unless noted
Compounds without any hit were thinned out: in the full panel of roughly 79,000, 15% have a hit.
assay-readout: growth inhibition (%)
Report the value in % with no unit label.

// known answers, use as guide
compound	assay-readout	quantitative-readout
CC(=O)OC1=C2OC(=O)C3(C2C=CC=C1)C1C=CC=CC13 (stereo not drawn)	growth inhibition	2.8
Cc1[nH]c(=O)nc(N/N=C/c2ccc(Cl)cc2)c1C(=O)NC(C)(CO)CO	growth inhibition	-43.5
CC(=O)Oc1cc(S(=O)(=O)Nc2n[nH]c(N)n2)c(S)cc1Cl	growth inhibition	-1.2
O=C1c2cc(Cc3ccccc3)c(=O)c(Cc3ccccc3)cc2C(=O)c2cc(Cc3ccccc3)c(=O)c(Cc3ccccc3)cc21	growth inhibition	-11.3
O=C(CC(=O)c1cc(Cl)ccc1O)c1ccc2ccccc2n1	growth inhibition	18.8

Value of growth inhibition reported for the compound "O=S1(=O)C(=C(c2ccccc2)c2ccccc2)S(=O)(=O)c2ccccc21" is 13.9

Value of growth inhibition reported for the compound OCC1OC(n2cnc3c2NC=NC[C@H]3O)C(O)C1O (stereo partly drawn) is 25.4

Value of growth inhibition reported for the compound CC1CCCCN1P(c1ccccc1)N1CCCCC1C (stereo not drawn) is 18.5

---

Test: NCI Yeast Anticancer Drug Screen. Data for the cln2 rad14 strain (AID 165);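 further: 0% = growth equal to vehicle treated cultures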
Settings: S. cerevisiae cln2 rad14 strain, active compounds read high; at 50.0 µM unless noted
Compounds without any hit were thinned out: in the full panel of roughly 79,000, 15% have a hit.
Output Fulfilled for growth inhibition not less than 10%; output Not fulfilled otherwise.

Before answering, review these 5 worked examples.
molecule	group-label
CC(CC(=O)Nc1ccccc1CC(c1c[nH]c2ccccc12)c1c[nH]c2ccccc12)C(=O)O (stereo unspecified)	Not fulfilled
CC(=O)OC1CCC2(C)C(CCC3(C)C2C(=O)C=C2C4CC(C)(C(=O)O)CCC4(C)CCC23C)C1(C)C (stereo unspecified)	Not fulfilled
Cc1ccc(S(=O)(=O)NN=C2C3C=CC2CC3)cc1	Not fulfilled
CC(C)C1CCC2C(CCC3C(C)(C(=O)O)CCCC23C)C1 (stereo unspecified)	Fulfilled
O=[N+]([O-])c1ccc2c(c1)S(=O)c1ccccc1-2 (stereo unspecified)	Not fulfilled

Decide: growth inhibition of "O=C1/C(=C\C=C\c2ccccc2)CCCC/C1=C\C=C\c1ccccc1" >= 10%?
Not fulfilled

Decide: growth inhibition of "O=c1[nH]c(Br)nc2c(N3CCCCC3)c[nH]c12" >= 10%?
Not fulfilled

Decide: growth inhibition of "c1ccc(-n2ncn[n+]2-c2ccccc2)cc1" >= 10%?
Fulfilled

Decide: growth inhibition of "CCOC(=O)c1cnc2c(cnn2CC)c1N1CCCCC1" >= 10%?
Not fulfilled

Decide: growth inhibition of OC(CN1CCCC1)c1ccccc1 (stereo unspecified) >= 10%?
Fulfilled

---

Experiment: NCI Yeast Anticancer Drug Screen. Data for the mlh1 rad18 strain (AID 175)
Conditions: S. cerevisiae mlh1 rad18 strain growth inhibition, active compounds read high; at 50.0 µM unless noted
About 79,000 compounds went through this panel and 15% of them were active in at least one assay; those are over-represented in the sample as a whole.
# reported growth inhibition; entries follow
Report the value in % with no unit label.

compound	units-text	growth inhibition
CCOC(=O)CC(c1ccccc1)C(C)(C(=O)OCC)C(=O)OCC (stereo unspecified)	%	-9.3
c1ccc2c(c1)nnn2C1CCCCO1 (stereo unspecified)	%	-72.8
O=C1C=C(c2ccccc2)C(c2ccccc2)/C1=N/O (stereo unspecified)	%	-9.85

Value of growth inhibition reported for the compound "Cc1cc(Cl)ccc1NC(=O)C(=O)Cc1ccc([N+](=O)[O-])c([N+](=O)[O-])c1CC(=O)C(=O)Nc1ccc(Cl)cc1C" is 7

Value of growth inhibition reported for the compound "CCOC(=O)c1[nH]c(C)c(C#N)c1C" is -19.1

Value of growth inhibition reported for the compound O=C1CSC(c2ccc([N+](=O)[O-])cc2)N1c1ccc(-n2c(-c3ccccc3)nc3ccccc3c2=O)cc1 (stereo unspecified) is 13.2

Value of growth inhibition reported for the compound CCCCOC(=O)CC(O)C(=O)OCCCC (stereo unspecified) is -11

Value of growth inhibition reported for the compound CC1CCCN1c1ccnc2cc(Cl)ccc12 (stereo unspecified) is 20.3

Value of growth inhibition reported for the compound "CC(=O)Nc1ccc(CCCc2ccc([N+](=O)[O-])cc2)cc1" is 0

Value of growth inhibition reported for the compound C[C@@]1([N+](=O)[O-])CC2CCC1C2 (stereo partly specified) is -9.55

Value of growth inhibition reported for the compound "O=C(c1ccccc1)c1ccc(O)cc1" is 24.9
